The following compounds are listed with their measured GI50 values.
experiment: Cellular growth inhibition, T-Rex 293 SC cells with doxycycline (progesterone receptor isoform B induced), Example 47; assay type: cell-based; conditions: progesterone receptor isoform B induced with 10 ng/mL doxycycline, 72 hours, CellTiter-Glo 2.0, Table 14 (Example 47)

>  <smiles record>
Cc1sc2c(c1C)C(c1ccc(Cl)cc1)=N[C@@H](CC(=O)NCCOCCOCCOCCOCCOC1CCN(c3ncc(C(=O)N[C@H]4C(C)(C)[C@H](Oc5ccc(C#N)c(Cl)c5)C4(C)C)cn3)CC1)c1nnc(C)n1-2

>  <GI50>
< 500 nM

$$$$
>  <smiles record>
Cc1sc2c(c1C)C(c1ccc(Cl)cc1)=N[C@@H](CC(=O)NCCOCCOCCOCC1CCN(c3ncc(C(=O)N[C@H]4C(C)(C)[C@H](Oc5ccc(C#N)c(Cl)c5)C4(C)C)cn3)CC1)c1nnc(C)n1-2

>  <GI50>
500 to 1500 nM

$$$$
>  <smiles record>
Cc1sc2c(c1C)C(c1ccc(Cl)cc1)=N[C@H](CC(=O)NCCOCCOCCOCCOCCOC1CCN(c3ncc(C(=O)N[C@H]4C(C)(C)[C@H](Oc5ccc(C#N)c(Cl)c5)C4(C)C)cn3)CC1)c1nnc(C)n1-2

>  <GI50>
< 500 nM

$$$$
>  <smiles record>
Cc1sc2c(c1C)C(c1ccc(Cl)cc1)=N[C@@H](CC(=O)NCCOCCOCCOCCOC1CCN(c3ncc(C(=O)N[C@H]4C(C)(C)[C@H](Oc5ccc(C#N)c(Cl)c5)C4(C)C)cn3)CC1)c1nnc(C)n1-2

>  <GI50>
< 500 nM

$$$$
>  <smiles record>
Cc1sc2c(c1C)C(c1ccc(Cl)cc1)=N[C@H](CC(=O)NCCOCCOCCOCCOCCN(C)c1ncc(C(=O)N[C@H]3C(C)(C)[C@H](Oc4ccc(C#N)c(Cl)c4)C3(C)C)cn1)c1nnc(C)n1-2

>  <GI50>
500 to 1500 nM

$$$$
>  <smiles record>
Cc1sc2c(c1C)C(c1ccc(Cl)cc1)=N[C@@H](CC(=O)NCCOC1CCN(c3ncc(C(=O)N[C@H]4C(C)(C)[C@H](Oc5ccc(C#N)c(Cl)c5)C4(C)C)cn3)CC1)c1nnc(C)n1-2

>  <GI50>
< 500 nM

$$$$
>  <smiles record>
Cc1sc2c(c1C)C(c1ccc(Cl)cc1)=N[C@H](CC(=O)NCCOCCOCCOCCOC1CCN(c3ncc(C(=O)N[C@H]4C(C)(C)[C@H](Oc5ccc(C#N)c(Cl)c5)C4(C)C)cn3)CC1)c1nnc(C)n1-2

>  <GI50>
< 500 nM

$$$$
>  <smiles record>
Cc1sc2c(c1C)C(c1ccc(Cl)cc1)=N[C@@H](CC(=O)NCCOCCOCCOCCOCCOCCOCCN(C)c1ncc(C(=O)N[C@H]3C(C)(C)[C@H](Oc4ccc(C#N)c(Cl)c4)C3(C)C)cn1)c1nnc(C)n1-2

>  <GI50>
< 500 nM

$$$$
>  <smiles record>
Cc1sc2c(c1C)C(c1ccc(Cl)cc1)=N[C@@H](CC(=O)NCCOCCOCCOCCOCCN(C)c1ncc(C(=O)N[C@H]3C(C)(C)[C@H](Oc4ccc(C#N)c(Cl)c4)C3(C)C)cn1)c1nnc(C)n1-2

>  <GI50>
< 500 nM

$$$$
>  <smiles record>
Cc1sc2c(c1C)C(c1ccc(OC3CC4(CCN(c5ncc(C(=O)N[C@H]6C(C)(C)[C@H](Oc7ccc(C#N)c(Cl)c7)C6(C)C)cn5)CC4)C3)cc1)=N[C@@H](Cc1ncco1)c1nnc(C)n1-2

>  <GI50>
< 500 nM

$$$$
